For each entry below, report its TGI value.
# System: PC-3 prostate
# protocol notes: NCI tumour cell line growth inhibition, 48 h

Returns the measured TGI for the input compound. Input: CCOC(=O)/C(Cl)=C(\C)Nc1nc2c(ccc3ccccc32)s1
> 100 µM

Further, for CC(=O)OC1C(O)COC(O[C@H]2CC[C@]34C[C@]35CC[C@]3(C)C([C@@]6(C)CC[C@@H](C(C)(C)O)O6)[C@@H](O)C[C@@]3(C)C5C[C@H](OC3OCC(O)C(O)C3O)[C@H]4C2(C)C)C1OC1OCC(O)C(O)C1O (stereo not given in full) ?
> 100 µM

Further, for COc1ccc2cc(-c3ccoc(=O)c3-c3cc(OC)c(OC)c(OC)c3)ccc2c1 ?
> 100 µM

Further, for O=C(N=S(NC(=O)c1ccccc1)C(Cl)(Cl)Cl)c1ccccc1 (stereo not given) ?
> 100 µM

Further, for CN1CCCCC1CCN1CCCCC1 (stereo not given) ?
> 100 µM

Further, for COc1nc(N)c(NC2OC(CO)C(O)C2O)c(=O)[nH]1 (stereo not given) ?
> 100 µM

Further, for Cc1ccc(NC(=O)/C=C/c2ccccc2)c(C(N)=O)c1 ?
> 100 µM

Further, for COc1ccc(C(OCC2OC(n3ccc(NC(=O)c4ccccc4)nc3=O)C(O)C2O)(c2ccccc2)c2ccccc2)cc1 (stereo not given) ?
8.28 µM

Further, for COc1nc2c(c(=O)n1C)N(C(C)=O)C1C(N2)OCC(OC(C)=O)C1OC(C)=O (stereo not given) ?
> 10 µM

Further, for CN(C)CCNc1nc(-c2ccc3ccccc3c2)nc2nc[nH]c12 ?
18.4 µM

Further, for CCOC(=O)c1sc2c(c1OC(=O)c1cccs1)c(=O)n(-c1ccccc1)c(=S)n2-c1ccccc1 ?
31.8 µM

Further, for CCOC(=O)c1c(N2CCCC2)nsc1Nc1ccccc1 ?
> 100 µM

Further, for NC(N)=N/N=C/c1c(-c2ccccc2)nc2n1ccc1nc(-c3ccccc3)c(/C=N/N=C(N)N)n12 ?
> 100 µM

Further, for O=C(c1ccccc1)C(CN1CCOCC1)c1ccccc1 (stereo not given) ?
13.3 µM

Further, for CN1CCN(Cc2ccc(NC(=O)c3cncc(C#Cc4cnc(N)c5ccncc45)c3)cc2C(F)(F)F)CC1 ?
9.18 µM

Further, for COC(=O)c1c2n(c3ccccc13)C[C@H]1OC(C)(C)O[C@@H]21 ?
> 100 µM

Further, for CC(=O)Nc1ccccc1SCCSSCCSc1ccccc1NC(C)=O ?
> 100 µM

Further, for CC1=C2C(=O)c3ccccc3C(=O)[C@H]2[C@H]2CCO[C@H]2O1 ?
> 100 µM

Further, for CN(C)c1ccc(/C=C\c2cccc[n+]2C)cc1 ?
> 100 µM

Further, for CC1=C(CCC(C)N(C)Cc2ccc(OCCCN3CCCC3)cc2)C(C)(C)CCC1 (stereo not given) ?
14.1 µM
